# Tested on: RXF-631 renal
# procedure.details: NCI tumour cell line growth inhibition, 48 h
Reported TGI values for the following compounds.

Consider the following illustrative entries.
• Cc1ccc(NC(=O)CC/C(CC(=O)c2ccc(F)cc2)=N\NC(=O)C(=O)NN)cc1C = > 100 µM
• CCCCCCCCCC1C(C)c2c([nH]c3ccccc23)C2C(=O)N(c3ccccc3)C(=O)C21 (stereo not given) = 11.7 µM

Ask: Would you kindly share the measured TGI for "Cc1ccc(S(=O)(=O)SCc2ccccc2CSS(=O)(=O)c2ccc(C)cc2)cc1" ?
Reply: > 100 µM

Ask: Would you kindly share the measured TGI for "CCOC(=O)[C@H]1Nc2ccc(Cl)cc2[C@H]2OCC[C@@H]12" ?
Reply: > 100 µM

Ask: Would you kindly share the measured TGI for "Nc1nnc(N)n1NC(=O)C(=O)Nc1ccc([N+](=O)[O-])cc1" ?
Reply: > 100 µM
